Target: c-kit mutant D816V (Homo sapiens, UniProt P10721, D816V/DEL694-753)
Construct: residues 551-934, kinase insertion domain residues 694-753 deleted; 6x-histidine (N); made in house; host or cells: E. coli Arctic Express (DE3) RIL (Stratagene)
Sequence (P10721 with tags, fused parts or gaps DEL694-753/D816V): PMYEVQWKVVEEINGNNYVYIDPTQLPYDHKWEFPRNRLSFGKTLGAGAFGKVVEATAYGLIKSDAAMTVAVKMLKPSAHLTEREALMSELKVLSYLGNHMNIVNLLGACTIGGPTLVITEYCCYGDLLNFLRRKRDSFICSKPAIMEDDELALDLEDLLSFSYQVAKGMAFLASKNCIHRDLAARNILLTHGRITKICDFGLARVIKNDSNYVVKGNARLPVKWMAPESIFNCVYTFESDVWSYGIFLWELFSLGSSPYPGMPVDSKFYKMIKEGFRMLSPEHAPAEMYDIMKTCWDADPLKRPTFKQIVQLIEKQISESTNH
Assay: c-Kit mutant D816V biochemical assay, AlphaScreen
Conditions: c-kit D816V biochemical inhibitory activity; read-out: Biochemical activity (IC50 μM) Kit D816V
Below, each of the molecules is paired with its reported IC50 value.

The cases that follow already have their IC50 on record.
COc1cccc([C@H](C)NC(=O)N2CCN(c3ncnc4[nH]c(-c5ccc(C#N)cc5)cc34)C[C@H]2C)c1 = 0.0001 to 1 µM
Cc1ccc(S(=O)(=O)Nc2ccc(-c3ncnc4cc(C5=CCN(C(=O)OC(C)(C)C)CC5)sc34)cc2)cc1 = 0.0001 to 1 µM
C[C@H](NC(=O)N1CCN(c2ncnc3cc(-c4ccc(F)cc4)sc23)CC1(C)C)c1cccc(F)c1 = 1 to 10 µM

Request: Tell me the measured IC50 of `Cc1cc2c(-c3ccc(NS(=O)(=O)c4ccc(OC(F)F)cc4)cc3)ncnc2[nH]1` , please.
Result: 10 to 200 µM

---

Molecular target: c-kit mutant D816V (Homo sapiens, UniProt P10721, D816V/DEL694-753)
Construct: residues 551-934, kinase insertion domain residues 694-753 deleted; 6x-histidine (N); made in house; host or cells: E. coli Arctic Express (DE3) RIL (Stratagene)
Test: c-Kit mutant D816V biochemical assay, AlphaScreen
Settings: c-kit D816V biochemical inhibitory activity; read-out: Biochemical activity (IC50 μM) Kit D816V
readout: IC50

Please review the following examples before continuing.
CN(C)S(=O)(=O)NC1CCN(c2ncnc3[nH]c(-c4cnn(C)c4)cc23)CC1 = 0.0001 to 1 µM
Cc1cc2c(N3CCN(C(=O)N[C@@H](C)c4ccc(F)cc4)C(C)(C)C3)ncnc2[nH]1 = 1 to 10 µM
O=S(=O)(Nc1ccc(-c2ncnc3[nH]c(-c4ccc(F)cc4)cc23)c(F)c1)N1CCCC1 = 1 to 10 µM
COc1ccc(CNS(=O)(=O)c2ccc(-c3ncnc4[nH]c(-c5ccc(F)cc5)cc34)cc2)cc1 = 10 to 200 µM

Now consider a different molecule.
Request: Report IC50 for C[C@@H](NC(=O)N1CCN(c2ncnc3[nH]c(-c4ccc(F)cc4)cc23)CC1)c1ccc(F)cc1 [P-0146] please.
Result: 10 to 200 µM

---

IC50 values, listed per item
Target: c-kit kinase (Homo sapiens)
Construct: The c-kit (or kinase domain thereof) is an active kinase in AlphaScreen; poly-Histidine tag (in-house protein only) (cleaved yes); host or cells: E. coli BL21(DE3)RIL, co-expressed with PTP1B
Assay: c-Kit biochemical assay, AlphaScreen, 10 μM ATP
Conditions: c-kit biochemical inhibitory activity; read-out: Biochemical activity (IC50 μM) Kit

O=C(c1ccc(Cl)cc1)c1cc2c(N3CCN(C(=O)NCc4ccc(F)cc4)CC3)ncnc2[nH]1 = 10 to 200 µM
COc1cccc([C@H](C)NC(=O)N2CCN(c3ncnc4cc(-c5ccc(F)cc5)sc34)CC2(C)C)c1 = 1 to 10 µM
O=C(NC1CCN(c2ncnc3[nH]ccc23)CC1)C1CCCC1 = 10 to 200 µM
COc1cc2ncnc(-c3ccc(S(N)(=O)=O)cc3)c2cc1OC = 10 to 200 µM
CCOc1cccc(NC(=O)N2CCN(c3ncnc4[nH]c(-c5cccnc5)cc34)CC2)c1 = 1 to 10 µM

Request: Which measured IC50 value corresponds to `Cc1cc2c(-c3ccc(NS(=O)(=O)c4ccc5oncc5c4)cc3)ncnc2[nH]1` ?
Result: 10 to 200 µM

---

Listed here: items and their measured IC50.
Target: c-kit kinase (Homo sapiens, UniProt P10721)
Construct: The c-kit (or kinase domain thereof) is an active kinase in AlphaScreen; poly-Histidine tag (in-house protein only) (cleaved yes); host or cells: E. coli BL21(DE3)RIL, co-expressed with PTP1B
Sequence (P10721 26-976): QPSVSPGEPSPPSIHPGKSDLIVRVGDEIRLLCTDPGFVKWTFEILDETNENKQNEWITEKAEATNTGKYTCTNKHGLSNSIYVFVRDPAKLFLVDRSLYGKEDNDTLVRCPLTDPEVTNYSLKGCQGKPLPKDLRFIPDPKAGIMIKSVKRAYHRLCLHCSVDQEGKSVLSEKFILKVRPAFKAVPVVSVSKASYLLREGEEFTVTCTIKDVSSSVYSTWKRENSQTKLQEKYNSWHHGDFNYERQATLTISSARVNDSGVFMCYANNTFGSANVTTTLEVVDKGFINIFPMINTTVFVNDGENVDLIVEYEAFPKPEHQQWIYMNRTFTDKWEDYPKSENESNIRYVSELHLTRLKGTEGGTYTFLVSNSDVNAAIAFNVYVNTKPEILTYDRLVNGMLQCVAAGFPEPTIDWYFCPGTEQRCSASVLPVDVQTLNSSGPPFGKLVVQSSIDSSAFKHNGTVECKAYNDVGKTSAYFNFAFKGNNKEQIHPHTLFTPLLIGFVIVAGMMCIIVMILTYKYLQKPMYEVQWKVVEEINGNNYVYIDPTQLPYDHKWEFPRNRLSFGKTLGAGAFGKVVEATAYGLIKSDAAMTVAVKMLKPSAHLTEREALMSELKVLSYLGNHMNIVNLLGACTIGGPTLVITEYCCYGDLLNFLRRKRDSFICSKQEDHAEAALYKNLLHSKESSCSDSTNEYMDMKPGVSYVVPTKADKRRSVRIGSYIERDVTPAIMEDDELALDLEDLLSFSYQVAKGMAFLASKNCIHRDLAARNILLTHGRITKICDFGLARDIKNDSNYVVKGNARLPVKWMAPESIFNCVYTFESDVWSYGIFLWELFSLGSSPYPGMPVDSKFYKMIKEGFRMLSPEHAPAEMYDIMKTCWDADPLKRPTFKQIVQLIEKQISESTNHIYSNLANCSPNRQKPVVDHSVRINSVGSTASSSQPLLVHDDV
Test: c-Kit biochemical assay, AlphaScreen, 10 μM ATP
Conditions: c-kit biochemical inhibitory activity; read-out: Biochemical activity (IC50 μM) Kit

# count of solved cases: 8
Cc1cc2c(-c3ccc(S(=O)(=O)Nc4ccc(F)cc4)c(F)c3)ncnc2[nH]1 [P-0343] = 10 to 200 µM
Cc1cc2c(-c3ccc(NS(=O)(=O)c4ccccc4F)c(F)c3)ncnc2[nH]1 [P-0348] = 0.0001 to 1 µM
O=C(NCc1ccc(F)cc1)N1CCN(c2ncnc3ccsc23)CC1 [P-0638] = 10 to 200 µM
O=S(=O)(Nc1ccc(-c2ncnc3[nH]c(C4=CCCC4)cc23)c(F)c1)c1ccc(F)cc1 [P-0321] = 0.0001 to 1 µM
COc1ccc([C@H](C)NC(=O)N2CCN(c3ncnc4cc(-c5ccc(F)cc5)sc34)CC2(C)C)cc1 [P-0576] = 10 to 200 µM
Cc1c(-c2cc3ncnc(N4CCN(C(=O)NCc5ccc(F)cc5)CC4)c3s2)cnn1C [P-0620] = 1 to 10 µM
C[C@H](NC(=O)N1CC=C(c2ncnc3cc(-c4ccc(F)cc4)sc23)CC1)c1cccc(OC(F)F)c1 [P-0573] = 10 to 200 µM
C[C@H](NC(=O)N1CCN(c2ncnc3[nH]c(-c4ccc(F)cc4)cc23)CC1)c1cccc2ccccc12 [P-0155] = 1 to 10 µM

Request: IC50, test system c-kit kinase (Homo sapiens, UniProt P10721), entry Cc1cc2c(-c3ccc(NS(=O)(=O)c4ccc(C)s4)cc3F)ncnc2[nH]1 [P-0291]
Result: 1 to 10 µM

Request: So what IC50 did C[C@H](NC(=O)N1CCN(c2ncnc3[nH]c(-c4ccc(F)cc4)cc23)CC1)c1cccc(N(C)C)c1 [P-0016] get with c-kit kinase (Homo sapiens, UniProt P10721)?
Result: 1 to 10 µM

Request: Could you share what IC50 was measured for O=S(=O)(Nc1cccc(-c2ncnc3[nH]c(-c4ccc(F)cc4)cc23)c1)C1CC1 [P-0413] , tested on c-kit kinase (Homo sapiens, UniProt P10721)?
Result: 1 to 10 µM

Request: Lab note: need IC50 for O=C(NCc1cncc(F)c1)N1CCN(c2ncnc3[nH]c(-c4ccc(F)cc4)cc23)CC1 [P-0131] on c-kit kinase (Homo sapiens, UniProt P10721), anyone have it?
Result: 1 to 10 µM

---

Molecular target: c-kit mutant D816V (Homo sapiens, UniProt P10721, D816V/DEL694-753)
Construct: residues 551-934, kinase insertion domain residues 694-753 deleted; 6x-histidine (N); made in house; host or cells: E. coli Arctic Express (DE3) RIL (Stratagene)
Assay: c-Kit mutant D816V biochemical assay, AlphaScreen
Conditions: c-kit D816V biochemical inhibitory activity; read-out: Biochemical activity (IC50 μM) Kit D816V
readout: IC50

CC(NC(=O)N1CCN(c2ncnc3[nH]c(-c4ccc(Cl)cc4)cc23)C[C@H]1C)c1ccc(Cl)cc1 (stereo in doubt) = 1 to 10 µM
COc1cccc([C@H](C)NC(=O)N2CCN(c3ncnc4[nH]c(-c5ccncc5)cc34)C[C@H]2C)c1 = 0.0001 to 1 µM
CCc1ccc(S(=O)(=O)Nc2ccc(-c3ncnc4[nH]c(C)cc34)c(F)c2)cc1 = 0.0001 to 1 µM
CS(=O)(=O)Nc1ccc(-c2ncnc3cc(C4=CCN(C(=O)C5CC5)CC4)sc23)cc1 = 0.0001 to 1 µM

API: the following record is the query input.
Request: Value lookup for IC50; key = `Cc1ccc(S(=O)(=O)NC2CCN(c3ncnc4[nH]c(-c5cnn(C)c5)cc34)CC2)s1`
Result: 0.0001 to 1 µM

---

Target: c-kit mutant D816V (Homo sapiens, UniProt P10721, D816V/DEL694-753)
Construct: residues 551-934, kinase insertion domain residues 694-753 deleted; 6x-histidine (N); made in house; host or cells: E. coli Arctic Express (DE3) RIL (Stratagene)
Assay: c-Kit mutant D816V biochemical assay, AlphaScreen
Conditions: c-kit D816V biochemical inhibitory activity; read-out: Biochemical activity (IC50 μM) Kit D816V
Experimental: Compounds to be tested were dissolved in DMSO to a concentration of 20 mM. These were diluted 30 μl into 120 μl of DMSO (4 mM) and 1 μl was added to an assay plate. These were then serially diluted 1:3 (50 μl to 100 μl DMSO) for a total of 8 points. […] The samples were incubated for 60 minutes at room temperature and the signal per well was read on EnVision reader. […]
readout: IC50

Cc1cc2c(-c3ccc(NS(=O)(=O)c4ccc(Cl)cc4)cc3F)ncnc2[nH]1 [P-0349] = 1 to 10 µM

Request: Look at this compound and give its reported IC50. O=C(Nc1ccc(F)c(Cl)c1)N1CCN(c2ncnc3[nH]ccc23)CC1 [P-0165]
Result: 10 to 200 µM

Request: If you can, please state the reported IC50 value of C[C@H](NC(=O)N1CCN(c2ncnc3[nH]c(-c4ccc(F)cc4)cc23)CC1)c1ccc(F)cc1 [P-0126] .
Result: 0.0001 to 1 µM

Request: Dear colleague, I am looking for the recorded IC50 of the following compound: Cn1cc(-c2cc3c(N4CCC(NS(=O)(=O)c5ccc6c(c5)CCC6)CC4)ncnc3[nH]2)cn1 [P-0452]
Result: 0.0001 to 1 µM

Request: Item under review: O=C(NCc1ccc(Cl)cc1)N1CCN(c2ncnc3[nH]c(-c4ccccc4)cc23)CC1 [P-0215] . Reported IC50?
Result: 10 to 200 µM

Request: Data request, read-out IC50, for CC(C)(C)OC(=O)N1CC=C(c2cc3ncnc(N4CCN(C(=O)NCc5ccc(F)cc5)CC4)c3s2)CC1 [P-0616]
Result: 0.0001 to 1 µM

Request: Which IC50 reading was recorded for the compound O=S(=O)(Nc1ccc(-c2ncnc3[nH]c(-c4ccc(F)cc4)cc23)cc1F)C1CC1 [P-0410] ?
Result: 0.0001 to 1 µM

Request: Return reported IC50; argument: O=C(NCc1ccc(F)cc1)N1CCN(c2ncnc3[nH]cc(C4CC4)c23)CC1 [P-0179]
Result: 1 to 10 µM

Request: IC50 lookup needed for O=S(=O)(Nc1ccc(F)cc1)c1ccc(-c2ncnc3[nH]c(-c4ccc(F)cc4)cc23)c(F)c1 [P-0328] , thanks.
Result: 0.0001 to 1 µM

Request: Which IC50 is reported for this compound? C[C@H](NC(=O)N1CCN(c2ncnc3[nH]c(-c4ccc(F)cc4)cc23)CC1(C)C)c1cccc(F)c1 [P-0005]
Result: 0.0001 to 1 µM

Request: Sample COc1ccc([C@@H](C)NC(=O)N2CCN(c3ncnc4[nH]c(-c5ccc(Cl)cc5)cc34)C[C@H]2C)cc1 [P-0019] — what was its IC50?
Result: 1 to 10 µM

Request: Tell me the measured IC50 of Cc1nn(C)cc1-c1cc2c(N3CCN(C(=O)N[C@@H](C)c4ccc(F)cc4)C(C)(C)C3)ncnc2[nH]1 [P-0721] , please.
Result: 0.0001 to 1 µM

Request: Value lookup for IC50; key = O=S(=O)(Nc1ccc(-c2ncnc3[nH]c(-c4ccc(F)cc4)cc23)c(F)c1)c1ccc(Cl)cc1 [P-0396]
Result: 0.0001 to 1 µM

Cited source for all entries: patent US10227357B2
